# TESTED SYSTEM: human PPARα (Homo sapiens, UniProt Q07869)
# Construct: expressed in transfected cells; host or cells: CHO-K1
# Sequence (Q07869 239-466 limits assumed): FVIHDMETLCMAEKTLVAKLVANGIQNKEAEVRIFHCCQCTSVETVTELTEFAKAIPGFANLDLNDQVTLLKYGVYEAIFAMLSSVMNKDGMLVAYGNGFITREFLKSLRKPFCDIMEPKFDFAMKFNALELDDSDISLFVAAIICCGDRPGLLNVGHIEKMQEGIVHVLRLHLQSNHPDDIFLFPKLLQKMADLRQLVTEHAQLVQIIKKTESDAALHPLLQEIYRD
# TEST METHOD NOTES: Activation of human PPARα: GAL4-PPARα LBD luciferase reporter transactivation in CHO-K1 cells
# Assay type: cell-based
# STATED CONDITIONS: CHO-K1 cells co-transfected with GAL4 DNA-binding domain/human PPARα ligand-binding domain fusion, firefly luciferase reporter normalized to Renilla; 20 hours with test compound
ENDPOINT NAME: EC50 (nM)

[
  {
    "COMPOUND": "Cc1nc(-c2ccc(Cl)cc2)sc1C(=O)NC1CCCN(c2cccc(CC(=O)O)c2)C1 (stereo not shown)",
    "EXPERIMENTAL VALUE": 37
  }
]

A = Cc1nc(-c2ccc(Cl)cc2)sc1C(=O)NCC1CCCN(c2cccc(CC(=O)O)c2)C1 (stereo not shown)
B = Cc1nc(-c2ccc(Cl)cc2)sc1C(=O)NCC1CCCN(c2ccccc2CC(=O)O)C1 (stereo not shown)
C = Cc1nc(-c2ccc(Cl)cc2)sc1C(=O)NC1CCCN(c2cccc(OC(C)(C)C(=O)O)c2)C1 (stereo not shown)
Please give the order of these compounds when sorted by EC50, largest value leading. # format: label list in the order the request specifies
C, A, B
